Parameter growth: see the listing below.
system: K-562 leukemia; test: NCI-60 one-dose screen, 48 h (100 = growth as untreated, 0 = no growth, -100 = all killed); settings: 10 µM unless noted
About 83,000 compounds went through this panel and 20% of them were active in at least one assay; those are over-represented in the sample as a whole.
Report the value in % with no unit label.

> print(dat)
                                   molecule      targetdesc  measurementname  assayvalue
1  CCCCSc1ccc2nc(-c3ccc(OCCCN=C(N)N)cc3)cn2c1  K-562 leukemia           growth        32.9

Fill in growth for `N#Cc1ccccc1-c1ccc(Cn2c(-c3cscn3)nc3c(Cl)cccc32)cc1` tested with K-562 leukemia. 49.2

Fill in growth for COC(=O)/C=C1/SC(N2N=C(c3cccs3)CC2c2ccc(F)cc2)=NC1=O (stereo not given) tested with K-562 leukemia. 5.16

Fill in growth for `Clc1ccc2c(c1)N(c1ncnc3ccc(-c4cnc5[nH]ccc5c4)cc13)CC2` tested with K-562 leukemia. 5.53

Fill in growth for `Cc1nc2sc(C(=O)Nc3cccc4ccccc34)c(N)c2cc1C(=O)/C=C/c1ccccc1` tested with K-562 leukemia. 12

* * *

Test system: SF-268 CNS
Test: NCI-60 one-dose screen, 48 h
Settings: 10 µM unless noted
Method: Cells are grown in 96 well plates and exposed to the test compound for 48 hours. Compounds are tested at a single concentration, which is 10^-5 M for most compounds. The reported endpoint is percent growth (GI% or GIPRCNT), where numbers from 0 - 100% represent growth inhibition, and numbers from -100% - 0 represent cell death. For example, a value of 40 represents 60% growth inhibition. A value of 0 means no net growth occurred over the course of the experiment. […]
This is part of a sample that, as a whole, favours compounds with a hit. Of some 83,000 tested, about 20% had one in any assay. Active and inactive are the calls of the source. The calls were made as follows: active = growth percent below 10; inactive = the rest.
A correct response names exactly one class from active, inactive

> print(dat)
                                  compound     class
1  O=c1ccc2nc(-c3ccccn3)nn(-c3ccccc3)c-2c1  inactive

Check the results log: what was the call for `N#C/C(=C\c1ccc(Br)cc1)n1nnc2c(F)cccc21` ? inactive

Check the results log: what was the call for `CN(C)CCCn1c2c(c3ccc(N4CCNCC4)cc3c1=O)C(=O)c1ccccc1-2` ? active

Check the results log: what was the call for `CCCCCCCCCCCCC[C@H](O)C[C@H](O)[C@H](C)N` ? inactive

Check the results log: what was the call for Cc1cnc(C(=O)NNc2nc3sc4c(c3c(=O)[nH]2)C(C)CCC4)cn1 (configuration not stated) ? inactive

Check the results log: what was the call for `COc1ccc(Nc2ncnc3ccc(-c4cncc(NS(C)(=O)=O)c4)cc23)cc1Cl` ? inactive

Check the results log: what was the call for `O=C1C(c2c[nH]c3ccccc23)=C(c2coc3cc(Br)ccc23)C(=O)N1O` ? inactive

Check the results log: what was the call for `O=S(=O)(Nc1ccc(F)cc1)c1ccc(-c2cnc(C3CC3)o2)cc1` ? inactive

Check the results log: what was the call for `Cc1[nH]c(C(=O)Nc2nc3ccc(NC(=O)CCN)cc3s2)c(Cl)c1Cl` ? inactive

Check the results log: what was the call for Fc1ccc(NC(c2ccc(F)cc2)C2CCN(CCCCc3ccccc3)CC2)cc1 (configuration not stated) ? inactive

Check the results log: what was the call for CC1=CC=C(NC(=O)/C=C/c2ccccc2)CC1Nc1nccc(-c2cccnc2)n1 (configuration not stated) ? inactive

Check the results log: what was the call for `CCOC(=O)c1nnn(Cc2cc(=O)oc3c2ccc2ccccc23)c1C` ? inactive

Check the results log: what was the call for `COc1ccc(-c2nn3c(-c4cc(F)c(Cl)cc4Cl)nnc3s2)cc1` ? inactive

Check the results log: what was the call for `COc1ccc(/C(C)=C(\c2ccc(OCCN3CCCCCC3)cc2)c2ccc(OC(=O)C3CCCCC3)cc2)cc1` ? active

Check the results log: what was the call for `CCNC(=O)Nc1ncccc1OCc1ccc(F)cc1` ? inactive

Check the results log: what was the call for `CCCCCCCCn1ccc2cc(NC(=O)CN3CCN(c4nc(C)cc(N5CCCCC5)n4)CC3)ccc21` ? inactive

Check the results log: what was the call for CC(=O)N1N=C(c2ccc(Nc3nc(Nc4ccc(F)cc4)nc(Nc4ccc(Cl)cc4)n3)cc2)CC1c1ccc(N(C)C)cc1 (configuration not stated) ? inactive
